Reference for the values: patent US8828997B2

test system: P. falciparum (highly chloroquine-resistant strain Fcm29-Cameroon); test: Antimalarial activity test (radioactive micromethod of Desjardins, tritiated hypoxanthine incorporation); assay type: cell-based; details: Plasmodium falciparum, Erythrocyte, 0.1 μM, infected human erythrocytes, 48 h
# inhibition at 0.1 µM annotations

Some compounds with recorded inhibition at 0.1 µM:
COMPOUND	RESULT
C[C@@]1(C(F)(F)F)Cn2c(nc(N3CCOCC3)cc2=O)N1Cc1ccccc1 [Example 3]	15%
COc1cccc(CCN2c3nc(N4CCOCC4)cc(=O)n3C[C@@]2(C)C(F)(F)F)c1 [Example 26]	14%
COc1ccc(CCN2c3nc(N4CCOCC4)cc(=O)n3C[C@@]2(C)C(F)(F)F)cc1 [Example 1]	67%

Read the next record carefully.
# C[C@@]1(C(F)(F)F)Cn2c(nc(N3CCOCC3)cc2=O)N1CCc1ccc(Cl)cc1 [Example 28] with P. falciparum (highly chloroquine-resistant strain Fcm29-Cameroon): inhibition at 0.1 µM is 14%
